- experimental target: TARP γ2 dependent GluA1 flop receptors (Homo sapiens, UniProt P42261+Q9Y698)
- Sequence (P42261 19-906): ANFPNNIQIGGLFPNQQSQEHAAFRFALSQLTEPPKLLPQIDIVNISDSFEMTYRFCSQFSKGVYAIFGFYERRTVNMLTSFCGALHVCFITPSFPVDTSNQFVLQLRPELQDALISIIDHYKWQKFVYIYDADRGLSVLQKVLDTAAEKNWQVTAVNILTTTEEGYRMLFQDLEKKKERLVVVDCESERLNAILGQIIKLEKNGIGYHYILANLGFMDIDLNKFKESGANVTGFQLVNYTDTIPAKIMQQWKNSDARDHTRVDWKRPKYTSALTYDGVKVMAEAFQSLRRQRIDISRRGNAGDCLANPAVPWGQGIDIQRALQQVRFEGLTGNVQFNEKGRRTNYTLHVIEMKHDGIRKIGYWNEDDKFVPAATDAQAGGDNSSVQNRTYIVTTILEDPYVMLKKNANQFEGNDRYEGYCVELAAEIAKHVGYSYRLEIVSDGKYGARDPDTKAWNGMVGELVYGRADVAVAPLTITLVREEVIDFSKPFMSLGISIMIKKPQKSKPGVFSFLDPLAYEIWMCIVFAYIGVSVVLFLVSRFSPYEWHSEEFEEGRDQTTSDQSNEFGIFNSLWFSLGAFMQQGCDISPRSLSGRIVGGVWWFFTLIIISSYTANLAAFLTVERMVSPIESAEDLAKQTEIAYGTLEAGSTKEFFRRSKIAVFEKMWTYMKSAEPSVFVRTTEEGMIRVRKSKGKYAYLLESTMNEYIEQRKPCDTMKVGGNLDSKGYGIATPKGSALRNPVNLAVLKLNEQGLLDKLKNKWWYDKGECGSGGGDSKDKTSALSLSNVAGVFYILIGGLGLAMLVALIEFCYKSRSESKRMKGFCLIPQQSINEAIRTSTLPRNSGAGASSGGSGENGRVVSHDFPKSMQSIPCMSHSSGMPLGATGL
- Sequence (Q9Y698 whole entry): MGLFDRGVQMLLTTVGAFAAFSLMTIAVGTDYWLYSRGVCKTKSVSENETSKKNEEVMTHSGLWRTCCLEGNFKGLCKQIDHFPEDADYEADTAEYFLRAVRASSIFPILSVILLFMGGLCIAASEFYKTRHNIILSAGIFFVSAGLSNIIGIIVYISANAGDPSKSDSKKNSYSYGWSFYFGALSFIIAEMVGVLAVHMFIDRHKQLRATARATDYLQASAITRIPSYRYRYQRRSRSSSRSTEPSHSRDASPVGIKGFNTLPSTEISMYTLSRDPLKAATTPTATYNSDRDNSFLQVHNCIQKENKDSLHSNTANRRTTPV
- test details: FLIPR antagonist functional assay, GluA1 flop co-expressed with TARP γ-2 in CHO-S cells
- protocol conditions: did not inhibit, assay limit 9260 nM
readout: IC50

May I ask what IC50 has been recorded for C[C@@H](c1ccc2[nH]c(=O)sc2c1)c1ccn(-c2ccc(OCCO)cn2)n1 (single isomer, unassigned) ? > 9.26 µM

###

- experimental target: TARP γ8 dependent GluA1 flop receptors (Homo sapiens, UniProt P42261+Q8WXS5)
- Sequence (P42261 19-906): as the sequence (P42261 19-906) above
- Sequence (Q8WXS5 whole entry): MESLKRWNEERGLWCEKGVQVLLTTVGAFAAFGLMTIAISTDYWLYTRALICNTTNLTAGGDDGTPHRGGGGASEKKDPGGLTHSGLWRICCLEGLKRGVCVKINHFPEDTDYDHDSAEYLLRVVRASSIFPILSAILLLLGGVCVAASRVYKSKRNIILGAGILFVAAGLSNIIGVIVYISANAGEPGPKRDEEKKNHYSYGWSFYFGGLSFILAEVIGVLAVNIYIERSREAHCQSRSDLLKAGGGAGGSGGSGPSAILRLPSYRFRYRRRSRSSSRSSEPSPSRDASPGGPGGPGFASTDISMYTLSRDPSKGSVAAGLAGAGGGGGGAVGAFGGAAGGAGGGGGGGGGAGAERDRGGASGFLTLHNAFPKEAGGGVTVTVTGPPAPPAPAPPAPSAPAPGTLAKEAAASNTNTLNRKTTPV
- test details: FLIPR antagonist functional assay, GluA1 flop co-expressed with TARP γ-8 in CHO-S cells
- protocol conditions: glutamate 45 μM plus CTZ 20 μM, average±SEM, n=9
readout: IC50 (nM)
Answer with a number only, understood to be in nM.

// query IC50 value for entry C[C@@H](c1ccc2[nH]c(=O)sc2c1)c1ccn(-c2ccc(OCCO)cn2)n1 (single isomer, unassigned) 74.5
